The measured values listed here are drawn from patent US10363257B2.

Consider the following compounds and their measured IC50 readings.
# test.system: Brd4 bromodomain 1 (BRD4(1)) (Homo sapiens, UniProt O60885)
# Construct: made in house; host or cells: E. coli BL21(DE3)
# assay.method.text: Inhibition of tetra-acetylated histone H4 binding to Brd4 bromodomain 1 (TR-FRET)
# study.conditions: tetra-acetylated histone H4 peptide, first bromodomain of Brd4

Answered examples (2):
compound: Cc1noc(C)c1-c1cc(CN)c2[nH]c(=O)n(Cc3ccccc3)c2c1 [Example Compound 22]
test.system: Brd4 bromodomain 1 (BRD4(1)) (Homo sapiens, UniProt O60885)
measure: IC50
data.value: 300 to 3000 nM

compound: Cc1noc(C)c1-c1cc(N)c2nc(C)n(C(C)c3ccccc3)c2c1 (stereo not drawn) [compound 96]
test.system: Brd4 bromodomain 1 (BRD4(1)) (Homo sapiens, UniProt O60885)
measure: IC50
data.value: ≤ 300 nM

Reported IC50 for Cc1noc(C)c1-c1cc2c(c(C)nn2Cc2ccc(F)cc2)[n+]([O-])c1 [Example Compound 24] : what is it? ≤ 300 nM

Moving on to Cc1noc(C)c1-c1cc(N(C)C)c2ncn(Cc3ccc(F)cc3)c2c1 [Example Compound 29] ≤ 300 nM

Moving on to Cc1noc(C)c1-c1cnc2c(c1)ncn2Cc1ccc(C(F)(F)F)cc1 [Example Compound 40] 300 to 3000 nM

Moving on to Cc1noc(C)c1-c1cnc2nc(C)n(CC3CC3)c2c1 [Example Compound 63] 300 to 3000 nM

Moving on to Cc1noc(C)c1-c1cnc2c(c1)ncn2Cc1ccc(F)cc1 [Example Compound 44] 300 to 3000 nM

Moving on to Cc1nc2ncc(-c3cnnn3C)cc2n1Cc1ccccc1 [compound 206] ≤ 300 nM

Moving on to CNc1nc2ncc(-c3c(C)noc3C)cc2n1Cc1ccccc1 [compound 146] ≤ 300 nM

Moving on to Cc1noc(C)c1-c1cnc2nc(NCc3cccnc3)n(Cc3ccccc3)c2c1 [compound 185] ≤ 300 nM

Moving on to Cc1noc(C)c1-c1ccc2c(c1)N(Cc1ccccc1)[C@H](C)C(=O)N2 [compound 174] ≤ 300 nM

Moving on to Cc1noc(C)c1-c1cnc2nc(NCc3ccccn3)n(Cc3ccccc3)c2c1 [compound 194] ≤ 300 nM

###

# test.system: Brd4 bromodomain 1 (BRD4(1)) (Homo sapiens, UniProt O60885)
# assay.method.text: Inhibition of tetra-acetylated histone H4 binding to Brd4 bromodomain 1 (TR-FRET)
# study.conditions: tetra-acetylated histone H4 peptide, first bromodomain of Brd4
Consider the following compounds and their measured IC50 readings.

Answered examples (8):
compound: Cc1noc(C)c1-c1cc(N)c2nc(C)n(Cc3ccccc3)c2c1 [Example Compound 55]
data.value: ≤ 0.3 µM

compound: Cc1noc(C)c1-c1cc(N)c2[nH]c(=S)n(Cc3ccccc3)c2c1 [compound 177]
data.value: 0.3 to 3 µM

compound: Cn1nccc1-c1ccc2c(c1)N(Cc1ccccc1)CC(=O)N2 [compound 166]
data.value: 0.3 to 3 µM

compound: Cc1noc(C)c1-c1cnc2c(Br)cn(Cc3ccccc3)c2c1 [Example Compound 34]
data.value: ≤ 0.3 µM

compound: Cc1noc(C)c1-c1cc([N+](=O)[O-])c2[nH]c(=O)n(Cc3ccc(Cl)cc3)c2c1 [compound 91]
data.value: ≤ 0.3 µM

compound: Cc1noc(C)c1-c1cnc2nc(N3CCC3)n(CC3CCCC3)c2c1 [compound 209]
data.value: ≤ 0.3 µM

compound: Cc1noc(C)c1-c1cc(C#N)c2[nH]c(=O)n(Cc3ccccc3)c2c1 [compound 86]
data.value: ≤ 0.3 µM

compound: Cc1noc(C)c1-c1cnc2[nH]c(=O)n(Cc3ccccc3)c2c1C [compound 180]
data.value: ≤ 0.3 µM

Reported IC50 for Cc1noc(C)c1-c1cnc2[nH]c(=O)n(Cc3ccc(F)cc3)c2c1 [compound 228] : what is it? ≤ 0.3 µM

Moving on to Cc1noc(C)c1-c1cc2c(cn1)ncn2Cc1ccccc1 [Example Compound 31] 0.3 to 3 µM

Moving on to Cc1noc(C)c1-c1cc([N+](=O)[O-])c2nc(C)n(CC3CCCC3)c2c1 [compound 117] ≤ 0.3 µM

Moving on to CC(=O)Nc1cn(Cc2ccccc2)c2cc(-c3c(C)noc3C)cnc12 [compound 99] ≤ 0.3 µM

Moving on to COCCNc1nc2c(N)cc(-c3c(C)noc3C)cc2n1Cc1ccccc1 [compound 139] ≤ 0.3 µM
